Origin of values: the antibiotic and cytotoxicity screens of Wong et al. (2023)

Tested on: HepG2
Assay: cytotoxicity call (relative viability < 0.9)
Conditions: 10 µM
Out of some 39,000 compounds screened, about 3,300 (8.5%) were called active. For the sample, actives were picked, then their nearest neighbours and some compounds at random.
Return exactly one item of active, inactive

For orientation, consider the following solved cases.
COc1cccc2c1C(=O)c1c(O)c3c(c(O)c1C2=O)C[C@@](O)(C(=O)CO)C[C@@H]3O[C@H]1C[C@H](N2CCO[C@H](OC)C2)[C@H](O)[C@H](C)O1; active
C[C@H]1CN([C@@H](C)CO)C(=O)CCCn2nncc2CO[C@@H]1CN(C)C(=O)Oc1ccc2ccccc2c1; inactive
CC12C=CC(=O)C=C1CCC1C2CCC2(C)C(=O)CCC12 (stereo not drawn); inactive
COc1ccc(C=O)cc1; inactive
C[C@@H]1CN([C@@H](C)CO)C(=O)CCCn2nncc2CO[C@H]1CN(C)C(=O)Oc1ccc2ccccc2c1; inactive
c1ccc2c(c1)Nc1ccccc1S2; active
NCCc1c[nH]c2ccc(OCC(=O)O)cc12; inactive
O.O=P1(N(CCCl)CCCl)NCCCO1 (stereo not drawn); inactive
CO[C@H]1[C@@H](O)[C@@H](C)O[C@H](O[C@H]2CC[C@@]3(C)[C@H]4CC[C@@]5(C)[C@@H](C6=CC(=O)OC6)CC[C@]5(O)[C@@H]4CC[C@]3(O)C2)[C@@H]1O; inactive
COc1cc2c(c(OC)c1OC)-c1ccc(OC)c(=O)cc1C(NC(C)=O)CC2 (stereo not drawn); active

Turning now to a further compound:
Answer briefly: the call reported for O=C1C=C2C(=CCOC2O)O1 (stereo not drawn) in this assay. active

---

Tested on: HepG2
Experiment: cytotoxicity call (relative viability < 0.9)
Settings: 10 µM
The whole screen tested about 39,000 compounds, of which about 3,300 (8.5%) were called active. The sample holds actives, similar compounds and a random draw of the others, so the mix is not that of the screen.
Return exactly one item of active, inactive

For orientation, consider the following solved cases.
Cc1ccnc(N2CCNCC2)c1; inactive
CN(C)C(=O)C(CCN1CCC(O)(c2ccc(Cl)cc2)CC1)(c1ccccc1)c1ccccc1.Cl; active
CN(C)C(=O)[C@@]1(Cc2ccccc2N=[N+]=[N-])N=C(c2ccc(OCCCO)cc2)O[C@H]1c1ccccc1N=[N+]=[N-]; inactive
CC1OC(OC2CC(O)C3(CO)C4C(O)CC5(C)C(C6=CC(=O)OC6)CCC5(O)C4CCC3(O)C2)C(O)C(O)C1O.O.O.O.O.O.O.O.O (stereo not given); active
COC(=O)[C@@]1(Cc2ccccc2N=[N+]=[N-])N=C(c2ccc(OCCCO)cc2)O[C@H]1c1ccccc1CN=[N+]=[N-]; inactive
COCCCNC(=O)[C@@]1(Cc2ccccc2CN=[N+]=[N-])N=C(c2ccc(OCCCO)cc2)O[C@H]1c1ccccc1N=[N+]=[N-]; inactive
CN(C)C(=O)[C@@]1(Cc2ccccc2CN=[N+]=[N-])N=C(c2ccc(OCCCO)cc2)O[C@H]1c1ccccc1N=[N+]=[N-]; active
COC(=O)[C@]1(Cc2ccccc2CN=[N+]=[N-])N=C(c2ccc(OCCCO)cc2)O[C@@H]1c1ccccc1N=[N+]=[N-]; active

Answer briefly: the call reported for CC(C)NC(=O)[C@H]1CCS(=O)(=O)[C@H]2CNC[C@@H]12 in this assay. inactive

Answer briefly: the call reported for CCn1cnc2c(Nc3cccc(Cl)c3)nc(N[C@@H]3CCCC[C@@H]3N)nc21 in this assay. active

Answer briefly: the call reported for C=CC=CCC1=C(C)C(OC(=O)C2C(C=C(C)C)C2(C)C)CC1=O (stereo not given) in this assay. inactive

Answer briefly: the call reported for [N-]=[N+]=NCc1ccccc1C[C@]1(C(=O)NCc2ccccc2)N=C(c2ccc(OCCCO)cc2)O[C@H]1c1ccccc1N=[N+]=[N-] in this assay. active

Answer briefly: the call reported for COC(=O)[C@@]1(Cc2ccccc2CN=[N+]=[N-])N=C(c2ccc(OCCCO)cc2)O[C@H]1c1ccccc1N=[N+]=[N-] in this assay. inactive

Answer briefly: the call reported for COCCCNC(=O)[C@]1(Cc2ccccc2N=[N+]=[N-])N=C(c2ccc(OCCCO)cc2)O[C@@H]1c1ccccc1N=[N+]=[N-] in this assay. inactive

Answer briefly: the call reported for C[C@@H]1O[C@@H](O[C@@H]2C[C@@H](O)[C@]3(CO)[C@H]4[C@H](O)C[C@]5(C)[C@@H](C6=CC(=O)OC6)CC[C@]5(O)[C@@H]4CC[C@]3(O)C2)[C@H](O)[C@H](O)[C@H]1O in this assay. active
